# Protocol: in vitro
# Assay conditions: male, SD, rat, plasma
Each record here notes measured half-life at 0.75 µM.

Examples with their reported half-life at 0.75 µM follow.
[[record]]
compound = "CCCCCCCCCCCCCCCCOCCCOP(=O)(O)OCC1=C[C@H](O)[C@H](n2cnc3c(=O)[nH]c(N)nc32)O1 [AB23040]"
recorded_metric = "half-life at 0.75 µM"
result = "> 9.32 h"

[[record]]
compound = "CCCCCCCCCCCCCCCCOCCCOP(=O)(O)OCC1=CC(O)C(n2ccc(=O)[nH]c2=O)O1 (stereo not drawn) [AB23039]"
recorded_metric = "half-life at 0.75 µM"
result = "> 9.32 h"


Kindly consider the entry below.
Asked: For COc1ccc([C@@H]2Sc3ccccc3N(CCN(C)C)C(=O)[C@@H]2OC(C)=O)cc1 [Diltiazem] , write its half-life at 0.75 µM.
Given back: 2.08 h
